# MBC values compiled below
# System: Listeria monocytogenes
# experiment: Bactericidal activity against Listeria monocytogenes NCTC 7973 by microdilution method
# Assay type: functional
Report as a plain number; the unit µM is understood.

INPUT: So what does the record say about MBC for `COc1cc(/C=C/C(=O)O[C@H]2[C@H](O[C@H]3[C@@H](Oc4c(-c5ccc(O)c(O)c5)oc5cc(O)c(OC)c(O)c5c4=O)O[C@H](CO)[C@@H](O)[C@@H]3O)O[C@@H](C(=O)O)[C@@H](O)[C@@H]2O)ccc1O` ?
OUTPUT: 1180

Now for a further compound.
INPUT: So what does the record say about MBC for `CN[C@@H]1[C@H](O[C@H]2[C@H](O[C@H]3[C@H](O)[C@@H](O)[C@H](N=C(N)N)[C@@H](O)[C@@H]3N=C(N)N)O[C@@H](C)[C@]2(O)C=O)O[C@@H](CO)[C@H](O)[C@H]1O` ?
OUTPUT: 516

---

# MBC values compiled below
# Tested on: Listeria monocytogenes
# experiment: Bactericidal activity against Listeria monocytogenes NCTC 7973 by microdilution method
# Assay type: functional
Report field: quantity (unit follows the number).

Some compounds with known MBC results, for comparison:
INPUT: So what does the record say about MBC for `CC1(C)[C@@H](O[C@H]2OC[C@H](O)[C@H](O)[C@H]2O[C@H]2O[C@H](CO)[C@@H](O)[C@H](O)[C@H]2O[C@H]2O[C@H](CO)[C@@H](O)[C@H](O)[C@H]2O)CC[C@]2(C)[C@H]3CC=C4[C@@H]5C[C@@](C)(C=O)CC[C@]5(C(=O)O[C@H]5O[C@H](CO)[C@@H](O)[C@H](O)[C@H]5O)CC[C@@]4(C)[C@]3(C)CC[C@@H]12` ?
OUTPUT: 1840 µM

INPUT: So what does the record say about MBC for `CC1(C)[C@@H](O[C@H]2OC[C@H](O)[C@H](O)[C@H]2O[C@H]2O[C@H](CO)[C@@H](O)[C@H](O)[C@H]2OS(=O)(=O)O)CC[C@]2(C)[C@H]3CC=C4[C@@H]5C[C@@](C)(C=O)CC[C@]5(C(=O)O[C@H]5O[C@H](CO)[C@@H](O)[C@H](O)[C@H]5O)CC[C@@]4(C)[C@]3(C)CC[C@@H]12` ?
OUTPUT: 2490 µM

INPUT: So what does the record say about MBC for `COc1cc(/C=C/C(=O)OC[C@@]2(O)CO[C@@H](O[C@H]3[C@@H](Oc4c(-c5ccc(O)c(O)c5)oc5cc(O)c(OC)c(O)c5c4=O)O[C@H](CO)[C@@H](O)[C@@H]3O)[C@@H]2O)ccc1O` ?
OUTPUT: 1250 µM

New cases:
INPUT: So what does the record say about MBC for `CC1(C)S[C@@H]2[C@H](NC(=O)[C@H](N)c3ccccc3)C(=O)N2[C@H]1C(=O)O` ?
OUTPUT: 1430 µM

INPUT: So what does the record say about MBC for `COc1c(O)cc2oc(-c3ccc(O)c(O)c3)c(O[C@H]3O[C@H](CO)[C@@H](O)[C@H](O)[C@H]3O[C@@H]3OC[C@](O)(CO)[C@H]3O)c(=O)c2c1O` ?
OUTPUT: 1200 µM

---

# Tested on: Pseudomonas aeruginosa
# experiment: Bactericidal activity against Pseudomonas aeruginosa ATCC 27853 by microdilution method
# Assay type: functional
# MBC values compiled below
Report as a plain number; the unit µM is understood.

Some molecules with known MBC results, for comparison:
INPUT: So what does the record say about MBC for `COc1c(O)cc2oc(-c3ccc(O)c(O)c3)c(O[C@H]3O[C@H](CO)[C@@H](O)[C@H](O)[C@H]3O[C@@H]3OC[C@](O)(CO)[C@H]3O)c(=O)c2c1O` ?
OUTPUT: 639

INPUT: So what does the record say about MBC for `CC1(C)[C@@H](O[C@H]2OC[C@H](O)[C@H](O)[C@H]2O[C@H]2O[C@H](CO)[C@@H](O)[C@H](O)[C@H]2OS(=O)(=O)O)CC[C@]2(C)[C@H]3CC=C4[C@@H]5C[C@@](C)(C=O)CC[C@]5(C(=O)O[C@H]5O[C@H](CO)[C@@H](O)[C@H](O)[C@H]5O)CC[C@@]4(C)[C@]3(C)CC[C@@H]12` ?
OUTPUT: 1190

INPUT: So what does the record say about MBC for `CC1(C)S[C@@H]2[C@H](NC(=O)[C@H](N)c3ccccc3)C(=O)N2[C@H]1C(=O)O` ?
OUTPUT: 3580

INPUT: So what does the record say about MBC for `CC1(C)[C@@H](O[C@H]2OC[C@H](O)[C@H](O)[C@H]2O[C@H]2O[C@H](CO)[C@@H](O)[C@H](O)[C@H]2O[C@H]2O[C@H](CO)[C@@H](O)[C@H](O)[C@H]2O)CC[C@]2(C)[C@H]3CC=C4[C@@H]5C[C@@](C)(C=O)CC[C@]5(C(=O)O[C@H]5O[C@H](CO)[C@@H](O)[C@H](O)[C@H]5O)CC[C@@]4(C)[C@]3(C)CC[C@@H]12` ?
OUTPUT: 1380

New cases:
INPUT: So what does the record say about MBC for `CN[C@@H]1[C@H](O[C@H]2[C@H](O[C@H]3[C@H](O)[C@@H](O)[C@H](N=C(N)N)[C@@H](O)[C@@H]3N=C(N)N)O[C@@H](C)[C@]2(O)C=O)O[C@@H](CO)[C@H](O)[C@H]1O` ?
OUTPUT: 516

INPUT: So what does the record say about MBC for `COc1cc(/C=C/C(=O)OC[C@@]2(O)CO[C@@H](O[C@H]3[C@@H](Oc4c(-c5ccc(O)c(O)c5)oc5cc(O)c(OC)c(O)c5c4=O)O[C@H](CO)[C@@H](O)[C@@H]3O)[C@@H]2O)ccc1O` ?
OUTPUT: 623

---

# MBC values compiled below
# Test system: Escherichia coli
# experiment: Bactericidal activity against Escherichia coli ATCC 35210 by microdilution method
# Assay type: functional
Report as a plain number; the unit µM is understood.

Some compounds with known MBC results, for comparison:
INPUT: So what does the record say about MBC for `CC1(C)[C@@H](O[C@H]2OC[C@H](O)[C@H](O)[C@H]2O[C@H]2O[C@H](CO)[C@@H](O)[C@H](O)[C@H]2OS(=O)(=O)O)CC[C@]2(C)[C@H]3CC=C4[C@@H]5C[C@@](C)(C=O)CC[C@]5(C(=O)O[C@H]5O[C@H](CO)[C@@H](O)[C@H](O)[C@H]5O)CC[C@@]4(C)[C@]3(C)CC[C@@H]12` ?
OUTPUT: 596

INPUT: So what does the record say about MBC for `CC1(C)[C@@H](O[C@H]2OC[C@H](O)[C@H](O)[C@H]2O[C@H]2O[C@H](CO)[C@@H](O)[C@H](O)[C@H]2O[C@H]2O[C@H](CO)[C@@H](O)[C@H](O)[C@H]2O)CC[C@]2(C)[C@H]3CC=C4[C@@H]5C[C@@](C)(C=O)CC[C@]5(C(=O)O[C@H]5O[C@H](CO)[C@@H](O)[C@H](O)[C@H]5O)CC[C@@]4(C)[C@]3(C)CC[C@@H]12` ?
OUTPUT: 1380

INPUT: So what does the record say about MBC for `COc1cc(/C=C/C(=O)OC[C@@]2(O)CO[C@@H](O[C@H]3[C@@H](Oc4c(-c5ccc(O)c(O)c5)oc5cc(O)c(OC)c(O)c5c4=O)O[C@H](CO)[C@@H](O)[C@@H]3O)[C@@H]2O)ccc1O` ?
OUTPUT: 623

INPUT: So what does the record say about MBC for CN[C@@H]1[C@H](O[C@H]2[C@H](O[C@H]3[C@H](O)[C@@H](O)[C@H](N=C(N)N)[C@@H](O)[C@@H]3N=C(N)N)O[C@@H](C)[C@]2(O)C=O)O[C@@H](CO)[C@H](O)[C@H]1O [STREPTOMYCIN] ?
OUTPUT: 516

INPUT: So what does the record say about MBC for CC1(C)S[C@@H]2[C@H](NC(=O)[C@H](N)c3ccccc3)C(=O)N2[C@H]1C(=O)O [AMPICILLIN] ?
OUTPUT: 1430

New cases:
INPUT: So what does the record say about MBC for `COc1cc(/C=C/C(=O)O[C@H]2[C@H](O[C@H]3[C@@H](Oc4c(-c5ccc(O)c(O)c5)oc5cc(O)c(OC)c(O)c5c4=O)O[C@H](CO)[C@@H](O)[C@@H]3O)O[C@@H](C(=O)O)[C@@H](O)[C@@H]2O)ccc1O` ?
OUTPUT: 1180

INPUT: So what does the record say about MBC for `COc1c(O)cc2oc(-c3ccc(O)c(O)c3)c(O[C@H]3O[C@H](CO)[C@@H](O)[C@H](O)[C@H]3O[C@@H]3OC[C@](O)(CO)[C@H]3O)c(=O)c2c1O` ?
OUTPUT: 639
